system: HL-60(TB) leukemia; test: NCI tumour cell line growth inhibition, 48 h
quantity-measured: TGI

Answered examples (4):
Given the entry CC1CN(c2ccc(Cl)cc2)CC(C)(C)OC(=O)O1 (centres undefined) , report its measured TGI.
> 100 µM

Given the entry O=C(/C=C/c1ccc(O)c(O)c1)OCc1ccccc1 , report its measured TGI.
4.66 µM

Given the entry CC(C)CC1C(=O)N2CCC[C@H]2C2(O)O[C@](NC(=O)C3C=C4c5cccc6[nH]c(Br)c(c56)C[C@H]4N(C)C3)(C(C)C)C(=O)N12 (some centres undefined) , report its measured TGI.
29.3 µM

Given the entry Cc1cc(=O)oc2cc(SC(=O)N(C)C)ccc12 , report its measured TGI.
> 100 µM

Please report TGI for every entry that follows.
1. c1ccc(N=c2snc3scc(-c4ccccc4)n23)cc1
2. O=C(NCCc1ccccc1)C(c1ccccc1)(c1ccccc1)c1ccccc1
3. Cn1c2c(c3ccccc31)CCN1OCC=C[C@@H](C(=O)O)[C@@H]21
4. CCCCCN1CCN(c2ncccn2)CC1
5. CCN(CC)CC.CCOc1ccc(NC(=O)N=C=[N-])cc1.[CH-]1CCCCC1.[CH-]1CCCCC1.[CH-]1CCCCC1.[Cl-].[Sn+4]
6. C[C@@H](N)C1CCC(C(=O)Nc2ccncc2)CC1 (some centres undefined)

1: > 100 µM; 2: > 100 µM; 3: > 100 µM; 4: > 100 µM; 5: 0.0584 µM; 6: > 100 µM

Please report TGI for every entry that follows.
1. Cc1cc(C(=O)Nc2nc3cccc(Cl)c3n2[C@@H]2CCCCN(C(=O)/C=C/CN(C)C)C2)ccn1
2. NC(=O)NC(=O)CCC(NS(=O)(=O)c1ccccc1)C(=O)NC(N)=O (centres undefined)

["38.3 µM", "> 100 µM"]

====

Consider the following compounds; for each one, report its TGI.
system: UACC-62 melanoma; test: NCI tumour cell line growth inhibition, 48 h

Given the entry CCCCCCCCCCCCNC(=O)[C@H]1CSC(c2cc3ccccc3s2)N1 (some centres undefined) , report its measured TGI.
4.28 µM

Given the entry C[C@@H](N)C1CCC(C(=O)Nc2ccncc2)CC1 (some centres undefined) , report its measured TGI.
> 100 µM

Given the entry Cc1ccc(S(=O)(=O)Oc2ccc([N+](=O)[O-])cc2[N+](=O)[O-])cc1 , report its measured TGI.
30.9 µM

Please report TGI for every entry that follows.
1. Cc1nnc2sc(Cl)nn12
2. N.N.N.N.O=NN1CCCCCC1(P(=O)([O-])[O-])P(=O)([O-])[O-].[Pt+4].[Pt+4]
3. COc1c2ccoc2cc2oc(=O)ccc12
4. Cc1nn2c(=O)c([N+](=O)[O-])c(/C=C/c3ccco3)nc2s1
5. CC1=C(C#N)C23C(=O)c4ccccc4C(O)=C2C(=O)C=CC3(O)N1 (centres undefined)

1: 18.9 µM; 2: > 100 µM; 3: > 100 µM; 4: > 100 µM; 5: 6.4 µM

Please report TGI for every entry that follows.
1. Cc1n[n+](CC(=O)c2ccccc2)c2sc(N)nn12
2. C[N+](C)(C)CC(=O)N/N=C(\CCC(=O)NCCc1ccccc1)CC(=O)c1ccccc1
3. C=C(C)CNC(=S)N(N)c1ccc(OC)cc1
4. O=C1/C=C/[C@@H](O)[C@@H]2C[C@@H](O)C[C@H]2/C=C/CCC[C@H](CCc2ccc(C(F)(F)F)cc2)O1
5. N#CC1(C#N)NC(c2cccnc2)C(C#N)(C#N)NC1c1cccnc1 (centres undefined)
6. CC(C)(C)OC(=O)[C@@H]1CCC(=S)N1Cc1ccccc1
7. CC1=C(C)CC(C#N)(C#N)C(C#N)(C#N)C1

["> 100 µM", "> 100 µM", "67.7 µM", "17.3 µM", "> 100 µM", "> 100 µM", "> 10 µM"]

Please report TGI for every entry that follows.
1. O=c1c(-c2c(-c3ccccc3)oc3ccc(Cl)cc3c2=O)c(-c2ccccc2)oc2ccc(Cl)cc12
2. COc1cc(OC)c2ssc3c(OC)cc(OC)c4ssc1c2-c43
3. CCCCCCCCCCCCCCCCOCC(CN(C)CCN(C)C)OCCCCCCCCCCCCCCCC (centres undefined)

> 100 µM
> 100 µM
> 100 µM

Given the entry Cc1cc(=O)oc2cc(SC(=O)N(C)C)ccc12 , report its measured TGI.
> 100 µM
